- study system: human plasma kallikrein (human, UniProt P03952 20-390; P03952 391-638)
- Sequence (P03952 20-390, chain 1 of 2): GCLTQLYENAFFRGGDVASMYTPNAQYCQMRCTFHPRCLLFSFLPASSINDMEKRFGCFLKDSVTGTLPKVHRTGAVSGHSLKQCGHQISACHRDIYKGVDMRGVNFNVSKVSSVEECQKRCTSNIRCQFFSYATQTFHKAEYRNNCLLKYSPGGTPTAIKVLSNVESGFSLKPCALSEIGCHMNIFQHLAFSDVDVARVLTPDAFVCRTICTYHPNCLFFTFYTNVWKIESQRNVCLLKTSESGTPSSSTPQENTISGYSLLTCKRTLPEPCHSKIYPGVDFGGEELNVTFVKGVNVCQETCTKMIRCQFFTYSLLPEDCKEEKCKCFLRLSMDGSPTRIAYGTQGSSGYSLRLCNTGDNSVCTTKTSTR
- Sequence (P03952 391-638, chain 2 of 2): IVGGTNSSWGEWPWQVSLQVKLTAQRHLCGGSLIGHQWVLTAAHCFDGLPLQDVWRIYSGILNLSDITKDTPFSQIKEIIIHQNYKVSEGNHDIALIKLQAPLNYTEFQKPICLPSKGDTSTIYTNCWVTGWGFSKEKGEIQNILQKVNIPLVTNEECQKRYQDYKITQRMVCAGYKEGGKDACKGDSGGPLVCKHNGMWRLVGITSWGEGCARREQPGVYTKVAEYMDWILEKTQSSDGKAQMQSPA
- assay protocol: cell-based or functional assay
readout label: % inhibition at 10 nM (%)
Numeric only. Scale: %

INSERT INTO results (binder, readout_label, value_unit, numeric_value) VALUES
  ('M208-B01 (Fab, V domains shown) VH: EVQLLESGGGLVQPGGSLRLSCAASGFTFSHYLMTWVRQAPGKGLEWVSYISPSGGHTIYADSVKGRFTISRDNSKNTLYLQMNSLRAEDTAVYYCARVARGIAARSRTSFFDQWGQGTLVTVSS VL: DIQMTQSPGTLSLSPGERATLSCRTSQFVNSNYLAWYQQTPGQAPRLLIYGASSRATGIPDRFSGTGYGTDFTLTISRLEPEDYGTYYCQQSSRTPWTFGQGTRVEIK', '% inhibition at 10 nM', '%', 90.1),
  ('M206-H05 (Fab, V domains shown) VH: EVQLLESGGGLVQPGGSLRLSCAASGFTFSGYKMQWVRQAPGKGLEWVSSISPSGGITMYADSVKGRFTISRDNSKNTLYLQMNSLRAEDTAVYYCARVARGIAARSRTSYFDYWGQGTLVTVSS VL: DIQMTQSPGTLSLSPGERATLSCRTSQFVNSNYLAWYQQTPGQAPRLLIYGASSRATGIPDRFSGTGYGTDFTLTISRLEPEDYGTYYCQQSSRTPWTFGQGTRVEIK', '% inhibition at 10 nM', '%', 82.5);

Below: the item to evaluate.
**Q:** Consider the binder M206-F09 (Fab, V domains shown) VH: EVQLLESGGGLVQPGGSLRLSCAASGFTFSVYMMSWVRQAPGKGLEWVSSIVPSGGSTTYADSVKGRFTISRDNSKNTLYLQMNSLRAEDTAVYYCARVARGIAARSRTSYFDYWGQGTLVTVSS VL: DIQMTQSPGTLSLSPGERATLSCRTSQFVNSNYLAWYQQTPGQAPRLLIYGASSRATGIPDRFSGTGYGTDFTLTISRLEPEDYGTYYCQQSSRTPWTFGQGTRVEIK . State its measured % inhibition at 10 nM.
**A:** 86.8

These measurements were taken from patent US9266964.
